Assay: Solubility of drugs in aqueous cyclodextrin solubilizer solution (saturation by stirring with excess drug, room temperature, about 24 hours; spectrophotometric)
Settings: 50% aqueous hydroxypropyl-beta-cyclodextrin, Solubilities of steroids in 50% aqueous solutions of hydroxypropyl-β-cyclodextrin, Table 2, d.s. 14
reported endpoint: solubility at 24 h

smiles data	endpoint result
C[C@]12CC[C@H]3[C@@H](CCC4=CC(=O)CC[C@@]43C)[C@@H]1CC[C@@H]2O	23 mg/mL
CC(=O)[C@H]1CC[C@H]2[C@@H]3CCC4=CC(=O)CC[C@]4(C)[C@H]3CC[C@]12C	23 mg/mL

###

Measured solubility at 24 h, listed per entry for reference.
Assay: Solubility of drugs in aqueous cyclodextrin solubilizer solution (saturation by stirring with excess drug, room temperature, about 24 hours; spectrophotometric)
Conditions: hydroxypropyl-β-cyclodextrin in water, Solubility in solubilizer solution, Table 1, hydroxypropyl-β-cyclodextrin in water, degree of substitution 6-7

compound	units	solubility at 24 h
Cn1c(=O)c2[nH]cnc2n(C)c1=O	mg/mL	11
C[C@]12CC[C@@H]3c4ccc(O)cc4CC[C@H]3[C@@H]1C[C@@H](O)[C@@H]2O	mg/mL	41
C#C[C@]1(O)CC[C@H]2[C@@H]3CCC4=CC(=O)CC[C@]4(C)[C@H]3CC[C@@]21C	mg/mL	0.5
C[C@@H]1C[C@H]2[C@@H]3CCC4=CC(=O)C=C[C@]4(C)[C@@]3(F)[C@@H](O)C[C@]2(C)[C@@]1(O)C(=O)CO	mg/mL	24
C=C1CC[C@H](O)C/C1=C/C=C1\CCC[C@]2(C)[C@@H]([C@H](C)CCCC(C)C)CC[C@@H]12	mg/mL	10
CC1OC(OC2CC(O)C3(CO)C4C(O)CC5(C)C(C6=CC(=O)OC6)CCC5(O)C4CCC3(O)C2)C(O)C(O)C1O (stereo not drawn)	mg/mL	80
COc1ccc2c(c1)c(CC(=O)O)c(C)n2C(=O)c1ccc(Cl)cc1	mg/mL	4.2
O=C1NC(=O)C(c2ccccc2)(c2ccccc2)N1	mg/mL	1.7
C[C@]12CCC(=O)C=C1CC[C@@H]1[C@@H]2CC[C@@]2(C)[C@H]1CC[C@]2(C)O	mg/mL	39
CC(=O)[C@H]1CC[C@H]2[C@@H]3CCC4=CC(=O)CC[C@]4(C)[C@H]3CC[C@]12C	mg/mL	34
C[C@H]1O[C@@H](O[C@H]2[C@@H](O)C[C@H](O[C@H]3[C@@H](O)C[C@H](O[C@H]4CC[C@@]5(C)[C@H](CC[C@@H]6[C@@H]5C[C@@H](O)[C@]5(C)[C@@H](C7=CC(=O)OC7)CC[C@]65O)C4)O[C@@H]3C)O[C@@H]2C)C[C@H](O)[C@@H]1O	mg/mL	45
CC(=O)Nc1ccc(O)cc1	mg/mL	67
Cc1cc(C(C)(C)C)c(O)c(C(C)(C)C)c1 [butylated hydroxytoluene]	mg/mL	3
C[C@]12CC[C@H]3[C@@H](CCC4=CC(=O)CC[C@@]43C)[C@@H]1CC[C@@H]2O	mg/mL	38
O=[N+]([O-])OCC(CO[N+](=O)[O-])O[N+](=O)[O-]	mg/mL	10.4
